# tested on: T1, recombinant SARS-CoV-2 Spike RBD domain, BA.4/5 variant (SARS-CoV-2)
# T1 construct: also called RBD BA.4/5 variant
# test name: ELISA on coated RBD
Reported Binding AUC values follow for various binders
experimental endpoint: Binding AUC

* SPK002M A2 antibody (antibody, human IgG1, kappa, V domains shown) VH: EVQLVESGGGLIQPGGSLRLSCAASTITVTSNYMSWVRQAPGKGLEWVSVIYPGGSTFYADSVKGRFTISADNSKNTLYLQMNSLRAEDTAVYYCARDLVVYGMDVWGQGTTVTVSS VL: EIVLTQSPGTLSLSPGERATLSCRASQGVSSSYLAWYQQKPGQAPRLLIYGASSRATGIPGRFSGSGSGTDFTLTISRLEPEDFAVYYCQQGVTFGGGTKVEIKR | 30
* SPK002M B1 antibody (antibody, human IgG1, kappa, V domains shown) VH: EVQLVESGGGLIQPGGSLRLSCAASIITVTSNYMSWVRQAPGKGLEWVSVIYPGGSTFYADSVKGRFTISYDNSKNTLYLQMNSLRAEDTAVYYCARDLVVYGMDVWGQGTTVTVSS VL: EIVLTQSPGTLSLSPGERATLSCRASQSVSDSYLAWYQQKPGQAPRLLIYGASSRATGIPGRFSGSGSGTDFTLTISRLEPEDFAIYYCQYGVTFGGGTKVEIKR | 31
* SPK002M C2 antibody (antibody, human IgG1, kappa, V domains shown) VH: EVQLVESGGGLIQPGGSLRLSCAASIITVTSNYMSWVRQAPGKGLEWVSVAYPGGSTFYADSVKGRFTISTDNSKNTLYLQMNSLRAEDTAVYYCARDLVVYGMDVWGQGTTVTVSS VL: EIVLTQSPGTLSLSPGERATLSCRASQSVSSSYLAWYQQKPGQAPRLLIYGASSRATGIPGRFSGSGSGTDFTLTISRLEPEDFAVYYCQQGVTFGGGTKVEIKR | 30
* SPK002M C3 antibody (antibody, human IgG1, kappa, V domains shown) VH: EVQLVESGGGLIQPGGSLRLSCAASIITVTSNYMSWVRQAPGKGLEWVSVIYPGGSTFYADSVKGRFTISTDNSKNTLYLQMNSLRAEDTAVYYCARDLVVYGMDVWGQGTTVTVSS VL: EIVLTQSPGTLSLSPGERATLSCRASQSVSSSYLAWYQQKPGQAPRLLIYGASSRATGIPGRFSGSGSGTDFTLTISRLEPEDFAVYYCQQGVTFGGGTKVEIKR | 32
* SPK002M C1 antibody (antibody, human IgG1, kappa, V domains shown) VH: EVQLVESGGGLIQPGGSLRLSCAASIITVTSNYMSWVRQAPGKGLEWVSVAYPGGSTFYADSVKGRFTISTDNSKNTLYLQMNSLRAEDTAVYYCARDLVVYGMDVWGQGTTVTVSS VL: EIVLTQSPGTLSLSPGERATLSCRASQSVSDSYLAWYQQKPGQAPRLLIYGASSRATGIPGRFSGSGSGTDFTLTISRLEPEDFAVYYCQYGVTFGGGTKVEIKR | 30
* SPK002M A4 antibody (antibody, human IgG1, kappa, V domains shown) VH: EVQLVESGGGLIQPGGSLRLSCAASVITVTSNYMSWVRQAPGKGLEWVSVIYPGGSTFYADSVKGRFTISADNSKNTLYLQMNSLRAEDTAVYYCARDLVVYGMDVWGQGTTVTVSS VL: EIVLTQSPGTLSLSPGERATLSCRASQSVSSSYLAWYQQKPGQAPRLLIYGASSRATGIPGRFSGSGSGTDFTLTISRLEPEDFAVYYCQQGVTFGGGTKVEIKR | 30
* SPK002M B2 antibody (antibody, human IgG1, kappa, V domains shown) VH: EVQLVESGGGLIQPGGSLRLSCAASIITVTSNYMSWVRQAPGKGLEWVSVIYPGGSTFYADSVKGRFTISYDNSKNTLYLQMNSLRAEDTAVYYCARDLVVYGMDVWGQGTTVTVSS VL: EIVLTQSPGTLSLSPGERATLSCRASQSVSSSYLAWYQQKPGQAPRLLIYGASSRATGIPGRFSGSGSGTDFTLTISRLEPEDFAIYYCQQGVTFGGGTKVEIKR | 30
* SPK002M A3 antibody (antibody, human IgG1, kappa, V domains shown) VH: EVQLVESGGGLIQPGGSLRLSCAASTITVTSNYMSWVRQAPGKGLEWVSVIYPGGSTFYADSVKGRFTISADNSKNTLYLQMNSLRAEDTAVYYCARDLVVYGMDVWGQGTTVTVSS VL: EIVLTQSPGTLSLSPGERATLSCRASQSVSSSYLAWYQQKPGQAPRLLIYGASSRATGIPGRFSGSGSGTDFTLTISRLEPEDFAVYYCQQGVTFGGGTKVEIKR | 30
* SPK002M A5 antibody (antibody, human IgG1, kappa, V domains shown) VH: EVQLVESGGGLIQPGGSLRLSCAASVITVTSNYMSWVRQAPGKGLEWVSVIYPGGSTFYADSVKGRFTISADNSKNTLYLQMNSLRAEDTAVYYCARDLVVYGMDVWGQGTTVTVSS VL: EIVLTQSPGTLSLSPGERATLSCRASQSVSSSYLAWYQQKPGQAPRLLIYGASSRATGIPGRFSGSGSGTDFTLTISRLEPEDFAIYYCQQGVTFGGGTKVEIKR | 32
* SPK002M A1 antibody (antibody, human IgG1, kappa, V domains shown) VH: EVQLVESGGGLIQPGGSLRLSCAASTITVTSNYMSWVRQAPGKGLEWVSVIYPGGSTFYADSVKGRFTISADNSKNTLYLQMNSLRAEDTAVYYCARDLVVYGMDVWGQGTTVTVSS VL: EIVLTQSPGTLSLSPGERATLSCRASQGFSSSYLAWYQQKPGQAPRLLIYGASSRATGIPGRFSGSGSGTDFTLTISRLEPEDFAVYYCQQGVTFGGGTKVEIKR | 31

Source of measurements: patent US12281155
